measured-on: FGF receptor/BKL complex (human, UniProt Q86Z14 1-1044)
Sequence (Q86Z14 whole entry, one chain of several): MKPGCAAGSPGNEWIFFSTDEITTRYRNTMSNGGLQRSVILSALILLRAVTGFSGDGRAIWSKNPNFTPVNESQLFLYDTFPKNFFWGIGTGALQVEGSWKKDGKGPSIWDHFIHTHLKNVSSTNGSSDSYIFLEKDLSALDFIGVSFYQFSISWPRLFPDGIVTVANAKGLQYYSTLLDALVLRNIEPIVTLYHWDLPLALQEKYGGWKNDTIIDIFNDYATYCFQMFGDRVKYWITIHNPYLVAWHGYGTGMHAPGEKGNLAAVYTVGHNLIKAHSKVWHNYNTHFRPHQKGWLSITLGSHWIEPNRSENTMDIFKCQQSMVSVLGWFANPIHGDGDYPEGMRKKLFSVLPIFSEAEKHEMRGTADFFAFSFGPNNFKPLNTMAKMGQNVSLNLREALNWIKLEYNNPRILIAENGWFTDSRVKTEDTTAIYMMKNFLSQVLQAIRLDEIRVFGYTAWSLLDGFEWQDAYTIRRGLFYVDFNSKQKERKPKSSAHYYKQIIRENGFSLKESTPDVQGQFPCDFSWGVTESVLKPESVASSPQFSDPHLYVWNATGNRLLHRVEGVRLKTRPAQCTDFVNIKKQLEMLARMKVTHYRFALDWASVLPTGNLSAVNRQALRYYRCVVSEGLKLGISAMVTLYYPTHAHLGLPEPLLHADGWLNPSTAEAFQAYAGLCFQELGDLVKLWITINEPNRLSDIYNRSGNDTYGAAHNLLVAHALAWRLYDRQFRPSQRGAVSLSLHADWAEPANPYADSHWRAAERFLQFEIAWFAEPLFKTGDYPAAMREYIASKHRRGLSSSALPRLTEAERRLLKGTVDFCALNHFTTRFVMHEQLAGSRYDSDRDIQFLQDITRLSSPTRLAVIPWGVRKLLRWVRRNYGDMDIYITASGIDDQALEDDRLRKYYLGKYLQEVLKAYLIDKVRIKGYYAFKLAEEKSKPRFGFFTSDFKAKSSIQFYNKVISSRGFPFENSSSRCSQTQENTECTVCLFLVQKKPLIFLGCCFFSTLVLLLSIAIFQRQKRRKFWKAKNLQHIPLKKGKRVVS
test-summary: cell-based or functional assay
Class (required): determined from FGF21 receptor potency [EC50] nM 0% HSA; valid ranges are b0 (below 0.3 nM), b1 (0.3 nM to below 0.5 nM), b2 (0.5 nM or more)

• S{Beta-27}-[2-[2-[[2-[2-[2-[[2-[2-[2-[[(4S)-4-carboxy-4-(17-carboxyheptadecanoyl-amino)butanoyl]amino]ethoxy]ethoxy]acetyl]amino]ethoxy]ethoxy]acetyl]amino]-eth … (ligand, Cys27 of the GLP-1 part (GLP-1(7-37) numbering; residue 21 of the chain) and Cys180 of the FGF21 part (FGF21(1-181) numbering; residue 228 of the chain) each S-alkylated with substituent Chem. 7) HGEGTFTSDVSSYLEEQAAKCFIAWLVKGGGGAQPGAQPGAQPGAQPAHPIPDSSPLLQFGGQVRQRYLYTDDAQQTEAHLEIREDGTVGGAADQSPESLLQLKALKPGVIQILGVKTSRFLCQRPDGALYGSLHFDPEACSFRELLLEDGYNVYQSEAHGLPLHLPGQKSPHRDPAPRGPARFLPLPGLPPALPEPPGILAPQPPDVGSSDPLSLVGPSQGRSPSYCS = b0
• [8G, 22E, 26R, 36G]GLP-1(7-37)-(GAQP)x2, … (ligand, Cys of the spacer (residue 40 of the chain) S-alkylated with substituent Chem. 7) HGEGTFTSDVSSYLEEQAAREFIAWLVKGGGGAQPGAQPCGAQPAHPIPDSSPLLQFGGQVRQRYLYTDDAQQTEAHLEIREDGTVGGAADQSPESLLQLKALKPGVIQILGVKTSRFLCQRPDGALYGSLHFDPEACSFRELLLEDGYNVYQSEAHGLPLHLPGQKSPHRDPAPRGPARFLPLPGLPPALPEPPGILAPQPPDVGSSDPLSLVGGSQGRSPSYAS = b1
• {S27-[(28S)-(28,46-Dicarboxy-2,7,16,25,30-pentaoxo-9,12,18,21-tetraoxa-3,6,15,24,29-pentaazahexatetracontan-1-yl)]-[Gly8,36,Glu22,Cys27]-GLP-1(human)-(7-37)-pep … (ligand, Cys27 of the GLP-1 part (GLP-1(7-37) numbering; residue 21 of the chain) S-alkylated with (28S)-(28,46-Dicarboxy-2,7,16,25,30-pentaoxo-9,12,18,21-tetraoxa-3,6,15,24,29-pentaazahexatetracontan-1-yl) (substituent Chem. 7)) HGEGTFTSDVSSYLEEQAAKCFIAWLVKGGGGAQPGAQPGAQPGAQPGAQPGAQPGAQPGAQPGAQPGAQPGAQPGAQPGAQPGAQPGAQPGAQPGAQPGAQPGAQPGAQPGAQPGAQPGAQPGAQPGAQPGAQPGAQPGAQPGAQPGAQPGAQPGAQPAHPIPDSSPLLQFGGQVRQRYLYTDDAQQTEAHLEIREDGTVGGAADQSPESLLQLKALKPGVIQILGVKTSRFLCQRPDGALYGSLHFDPEACSFRELLLEDGYNVYQSEAHGLPLHLPGQKSPHRDPAPRGPARFLPLPGLPPALPEPPGILAPQPPDVGSSDPLSLVGGSQGRSPSYES = b2
• S{Beta-27}-[2-[2-[[2-[2-[2-[[2-[2-[2-[[(4S)-4-carboxy-4-(17-carboxyheptadecanoyl-amino)butanoyl]amino]ethoxy]ethoxy]acetyl]amino]ethoxy]ethoxy]acetyl]amino]-eth … (ligand, Cys27 of the GLP-1 part (GLP-1(7-37) numbering; residue 21 of the chain) and Cys180 of the FGF21 part (FGF21(1-181) numbering; residue 228 of the chain) each S-alkylated with substituent Chem. 7) HGEGTFTSDVSSYLEEQAARCFIAWLVKGGGGAQPGAQPGAQPGAQPAHPIPDSSPLLQFGGQVRQRYLYTDDAQQTEAHLEIREDGTVGGAADQSPESLLQLKALKPGVIQILGVKTSRFLCQRPDGALYGSLHFDPEACSFRELLLEDGYNVYQSEAHGLPLHLPGQKSPHRDPAPRGPARFLPLPGLPPALPEPPGILAPQPPDVGSSDPLSLVGPSQGRSPSYCS = b2
• S{Beta-27}-[2-[2-[[2-[2-[2-[[2-[2-[2-[[(4S)-4-carboxy-4-(17-carboxyheptadecanoyl-amino)butanoyl]amino]ethoxy]ethoxy]acetyl]amino]ethoxy]ethoxy]acetyl]amino]-eth … (ligand, Cys27 of the GLP-1 part (GLP-1(7-37) numbering; residue 21 of the chain) S-alkylated with substituent Chem. 7) HGEGTFTSDVSSYLEEQAAKCFIAWLVKGGGGAQPGAQPGAQPGAQPGAQPGAQPGAQPGAQPGAQPGAQPGAQPGAQPGAQPGAQPGAQPGAQPAHPIPDSSPLLQFGGQVRQRYLYTDDAQQTEAHLEIREDGTVGGAADQSPESLLQLKALKPGVIQILGVKTSRFLCQRPDGALYGSLHFDPEACSFRELLLEDGYNVYQSEAHGLPLHLPGQKSPHRDPAPRGPARFLPLPGLPPALPEPPGILAPQPPDVGSSDPLSLVGGSQGRSPSYES = b1
• S{Beta-27}-[2-[2-[[2-[2-[2-[[2-[2-[2-[[(4S)-4-carboxy-4-(17-carboxyheptadecanoyl-amino)butanoyl]amino]ethoxy]ethoxy]acetyl]amino]ethoxy]ethoxy]acetyl]amino]-eth … (ligand, Cys27 of the GLP-1 part (GLP-1(7-37) numbering; residue 21 of the chain) S-alkylated with substituent Chem. 7) HGEGTFTSDVSSYLEEQAAKCFIAWLVKGGGGAQPGAQPGAQPGAQPAHPIPDSSPLLQFGGQVRQRYLYTDDAQQTEAHLEIREDGTVGGAADQSPESLLQLKALKPGVIQILGVKTSRFLCQRPDGALYGSLHFDPEACSFRELLLEDGYNVYQSEAHGLPLHLPGQKSPHRDPAPRGPARFLPLPGLPPALPEPPGILAPQPPDVGSSDPLSLVGGSQGRSPSYES = b1
• S{Beta-27}-[2-[2-[[2-[2-[2-[[2-[2-[2-[[(4S)-4-carboxy-4-(17-carboxyheptadecanoyl-amino)butanoyl]amino]ethoxy]ethoxy]acetyl]amino]ethoxy]ethoxy]acetyl]amino]-eth … (ligand, Cys27 of the GLP-1 part (GLP-1(7-37) numbering; residue 21 of the chain) S-alkylated with substituent Chem. 7) HGEGTFTSDVSSYLEEQAAKCFIAWLVKGGGGAQPGAQPGAQPGAQPGAQPGAQPGAQPGAQPAHPIPDSSPLLQFGGQVRQRYLYTDDAQQTEAHLEIREDGTVGGAADQSPESLLQLKALKPGVIQILGVKTSRFLCQRPDGALYGSLHFDPEACSFRELLLEDGYNVYQSEAHGLPLHLPGQKSPHRDPAPRGPARFLPLPGLPPALPEPPGILAPQPPDVGSSDPLSLVGGSQGRSPSYES = b1
• S{Beta-36}-[2-[2-[[2-[2-[2-[[2-[2-[2-[[(4S)-4-carboxy-4-(17-carboxyheptadecanoyl-amino)butanoyl]amino]ethoxy]ethoxy]acetyl]amino]ethoxy]ethoxy]acetyl]amino]-eth … (ligand, Cys36 of the GLP-1 part (GLP-1(7-37) numbering; residue 30 of the chain) S-alkylated with substituent Chem. 7) HGEGTFTSDVSSYLEEQAAREFIAWLVKGCGGAQPGAQPGAQPGAQPAHPIPDSSPLLQFGGQVRQRYLYTDDAQQTEAHLEIREDGTVGGAADQSPESLLQLKALKPGVIQILGVKTSRFLCQRPDGALYGSLHFDPEACSFRELLLEDGYNVYQSEAHGLPLHLPGQKSPHRDPAPRGPARFLPLPGLPPALPEPPGILAPQPPDVGSSDPLSLVGGSQGRSPSYES = b1
• S{Beta-26}-[2-[2-[[2-[2-[2-[[2-[2-[2-[[(4S)-4-carboxy-4-(17-carboxyheptadecanoyl-amino)butanoyl]amino]ethoxy]ethoxy]acetyl]amino]ethoxy]ethoxy]acetyl]amino]-eth … (ligand, Cys26 of the GLP-1 part (GLP-1(7-37) numbering; residue 20 of the chain) and Cys180 of the FGF21 part (FGF21(1-181) numbering; residue 228 of the chain) each S-alkylated with substituent Chem. 7) HGEGTFTSDVSSYLEEQAACEFIAWLVKGGGGAQPGAQPGAQPGAQPAHPIPDSSPLLQFGGQVRQRYLYTDDAQQTEAHLEIREDGTVGGAADQSPESLLQLKALKPGVIQILGVKTSRFLCQRPDGALYGSLHFDPEACSFRELLLEDGYNVYQSEAHGLPLHLPGQKSPHRDPAPRGPARFLPLPGLPPALPEPPGILAPQPPDVGSSDPLSLVGPSQGRSPSYCS = b0
• [8G, 22E, 36G]GLP-1(7-37)-(GAQP)x2, … (ligand, Cys of the spacer (residue 40 of the chain) S-alkylated with substituent Chem. 7) HGEGTFTSDVSSYLEEQAAKEFIAWLVKGGGGAQPGAQPCGAQPGAQPAHPIPDSSPLLQFGGQVRQRYLYTDDAQQTEAHLEIREDGTVGGAADQSPESLLQLKALKPGVIQILGVKTSRFLCQRPDGALYGSLHFDPEACSFRELLLEDGYNVYQSEAHGLPLHLPGQKSPHRDPAPRGPARFLPLPGLPPALPEPPGILAPQPPDVGSSDPLSLVGGSQGRSPSYAS = b0

These data points were gathered from patent US20240400635A1.
